test system: MOLT-4 leukemia; assay: NCI-60 one-dose screen, 48 h (100 = growth as untreated, 0 = no growth, -100 = all killed); conditions: 10 µM unless noted
The panel holds about 83,000 compounds, 20% with a hit somewhere; the sample as a whole holds those more often.
Recorded growth, one value per entry.
The answer is to be given in %; state only the numeric part.

{"Compound": "NS(=O)(=O)c1ccc(CCNC(=O)CSc2ccc(-c3ccc(Br)cc3)nn2)cc1", "growth (%)": 39}
{"Compound": "O=C(O)c1cccc(-c2ccc(/C=N/NC(=O)c3[nH]c4ccc(Br)cc4c3-c3ccccc3)s2)c1", "growth (%)": 45.3}
{"Compound": "Cn1cc(-c2cc(N)n3nc(-c4cn(C)c5ccccc45)cc3n2)c2cc(Cl)ccc21", "growth (%)": -6.02}

Report growth for COc1ccc2[nH]c(=O)c(CSc3nccc(-c4ccc(OC)c(OC)c4)n3)cc2c1
7.07

Report growth for CCCCCCCCc1ccc(C(=O)Nc2ccc(C)cc2C(=O)O)cc1C
90.8

Report growth for COc1ccc(C(SCCNCc2cc(N(C)C)ccn2)(c2ccccc2)c2ccccc2)cc1
9.51

Report growth for C=C1CCC2C3(C)COC(c4ccccc4F)OC3CCC2(C)C1CC(O)C1=CCOC1=O (stereo not drawn)
48.9
